- ASSAYED SYSTEM: Histone deacetylase 2 (Homo sapiens, UniProt Q92769)
- Sequence (Q92769 whole entry): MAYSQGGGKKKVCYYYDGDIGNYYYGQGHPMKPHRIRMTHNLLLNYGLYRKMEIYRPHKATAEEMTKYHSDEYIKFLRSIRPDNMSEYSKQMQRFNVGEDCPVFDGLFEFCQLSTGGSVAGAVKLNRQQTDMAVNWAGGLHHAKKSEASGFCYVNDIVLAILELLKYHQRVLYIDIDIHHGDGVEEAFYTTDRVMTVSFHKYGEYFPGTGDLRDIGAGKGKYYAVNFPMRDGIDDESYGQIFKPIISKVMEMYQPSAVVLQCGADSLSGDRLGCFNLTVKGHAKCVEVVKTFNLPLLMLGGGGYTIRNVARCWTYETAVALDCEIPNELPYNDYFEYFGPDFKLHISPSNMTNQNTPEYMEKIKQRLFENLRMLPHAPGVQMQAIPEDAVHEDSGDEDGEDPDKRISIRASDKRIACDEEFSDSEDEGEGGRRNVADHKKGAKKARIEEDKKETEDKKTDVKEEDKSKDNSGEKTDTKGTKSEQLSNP
REPORTED METRIC: IC50 (nM)
# output: bare number, implied unit nM

Problem: Enter IC50 (test system Histone deacetylase 2 (Homo sapiens, UniProt Q92769)) for COc1ccc(C(=O)N[C@H](COc2cccc(/C=C/C(=O)NO)c2)Cc2c[nH]c3ccccc23)cc1
Result: 865

* * *

- ASSAYED SYSTEM: Protein deacetylase HDAC6 (Homo sapiens, UniProt Q9UBN7)
- Sequence (Q9UBN7 whole entry): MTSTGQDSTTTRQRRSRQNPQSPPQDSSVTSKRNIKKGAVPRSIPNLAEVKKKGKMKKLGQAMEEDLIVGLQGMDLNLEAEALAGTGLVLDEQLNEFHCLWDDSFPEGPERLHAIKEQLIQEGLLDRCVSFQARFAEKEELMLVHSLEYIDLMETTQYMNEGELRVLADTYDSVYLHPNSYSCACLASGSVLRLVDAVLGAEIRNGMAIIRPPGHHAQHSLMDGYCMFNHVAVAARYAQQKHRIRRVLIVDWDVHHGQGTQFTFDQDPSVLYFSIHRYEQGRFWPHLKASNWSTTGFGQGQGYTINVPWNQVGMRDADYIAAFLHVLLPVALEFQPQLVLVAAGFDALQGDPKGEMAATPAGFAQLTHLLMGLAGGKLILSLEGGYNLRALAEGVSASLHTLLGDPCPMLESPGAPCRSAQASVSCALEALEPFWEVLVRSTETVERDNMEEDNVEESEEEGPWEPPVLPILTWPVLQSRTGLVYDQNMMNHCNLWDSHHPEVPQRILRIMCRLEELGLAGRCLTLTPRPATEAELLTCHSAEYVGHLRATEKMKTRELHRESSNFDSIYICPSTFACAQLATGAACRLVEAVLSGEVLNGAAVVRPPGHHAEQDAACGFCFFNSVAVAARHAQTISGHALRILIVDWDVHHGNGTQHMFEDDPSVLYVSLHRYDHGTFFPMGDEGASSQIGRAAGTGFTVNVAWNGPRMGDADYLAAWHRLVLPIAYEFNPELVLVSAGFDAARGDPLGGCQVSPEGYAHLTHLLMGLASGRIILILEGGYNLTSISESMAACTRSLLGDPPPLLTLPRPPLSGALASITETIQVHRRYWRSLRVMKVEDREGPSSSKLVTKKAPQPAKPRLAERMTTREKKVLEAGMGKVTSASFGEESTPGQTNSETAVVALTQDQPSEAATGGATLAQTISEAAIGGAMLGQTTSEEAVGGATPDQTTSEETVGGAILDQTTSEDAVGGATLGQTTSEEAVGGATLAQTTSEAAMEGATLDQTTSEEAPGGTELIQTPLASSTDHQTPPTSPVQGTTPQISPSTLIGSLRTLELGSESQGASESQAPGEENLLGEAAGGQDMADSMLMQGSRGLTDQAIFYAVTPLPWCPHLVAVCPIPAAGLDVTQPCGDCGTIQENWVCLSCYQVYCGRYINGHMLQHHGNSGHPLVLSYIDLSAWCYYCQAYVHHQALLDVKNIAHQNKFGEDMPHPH
REPORTED METRIC: pIC50
Value format note: pIC50 is -log10 of concentration (mol/L); just state the number.

Problem: Supply pIC50 value. Item: COc1ccc(C(=O)N[C@H](COc2cccc(/C=C/C(=O)NO)c2)Cc2c[nH]c3ccccc23)cc1
Result: 7.03
